Would you kindly list Fold increase over wild-type KD for each of these binders?
- target under test: bovine FcRn complex (bovine) (UniProt F6R592)
- Sequence (chain, as listed by the source, chain 1 of 2): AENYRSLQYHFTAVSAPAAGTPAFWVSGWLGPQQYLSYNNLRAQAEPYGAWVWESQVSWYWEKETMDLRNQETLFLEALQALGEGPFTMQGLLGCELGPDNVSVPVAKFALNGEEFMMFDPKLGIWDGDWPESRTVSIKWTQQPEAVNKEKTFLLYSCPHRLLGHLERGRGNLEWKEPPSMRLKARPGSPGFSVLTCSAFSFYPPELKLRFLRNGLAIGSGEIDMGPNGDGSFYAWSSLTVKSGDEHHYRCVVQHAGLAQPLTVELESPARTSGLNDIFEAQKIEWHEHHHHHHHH
- Sequence (P01888 other isoform, or with tags, fused parts or gaps, chain 2 of 2): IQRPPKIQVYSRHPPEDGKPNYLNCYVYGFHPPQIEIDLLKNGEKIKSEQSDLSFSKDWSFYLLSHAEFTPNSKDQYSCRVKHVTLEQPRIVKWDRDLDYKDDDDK
- assay overview: SPR (Biacore 8K+), pH 5.9, 25 C; FcRn captured by anti-His, IgG as analyte; 1:1 kinetic model

Below, 2 binders whose answers are already recorded.
binder: Bovine wild-type (antibody, part only; not given: variable domains, light chain, IgG1, not shown: another chain or arm of the molecule) Fc: PPELPGGPSVFIFPPKPKDTLTISGTPEVTCVVVDVGHDDPEVKFSWFVDNVEVNTATTKPREEQFNSTYRVVSALRIQHQDWTGGKEFKCKVHNEGLPAPIVRTISRTKGPAREPQVYVLAPPQEELSKSTVSLTCMVTSFYPDYIAVEWQRNGQPESEDKYGTTPPQLDADSSYFLYSKLRVDRNSWQEGDTYTCVVMHEALHNHYTQKSTSKSA
value measured: 1 fold

binder: Bovine Y436H (antibody, part only; not given: variable domains and light chain, IgG1, not shown: another chain or arm of the molecule) Fc: PPELPGGPSVFIFPPKPKDTLTISGTPEVTCVVVDVGHDDPEVKFSWFVDNVEVNTATTKPREEQFNSTYRVVSALRIQHQDWTGGKEFKCKVHNEGLPAPIVRTISRTKGPAREPQVYVLAPPQEELSKSTVSLTCMVTSFYPDYIAVEWQRNGQPESEDKYGTTPPQLDADSSYFLYSKLRVDRNSWQEGDTYTCVVMHEALHNHHTQKSTSKSA
value measured: 2.3 fold

Now consider a different binder.
Prompt line: // lookup Fold increase over wild-type KD for Bovine Q311V (antibody, part only; not given: variable domains and light chain, IgG1, not shown: another chain or arm of the molecule) Fc: PPELPGGPSVFIFPPKPKDTLTISGTPEVTCVVVDVGHDDPEVKFSWFVDNVEVNTATTKPREEQFNSTYRVVSALRIQHVDWTGGKEFKCKVHNEGLPAPIVRTISRTKGPAREPQVYVLAPPQEELSKSTVSLTCMVTSFYPDYIAVEWQRNGQPESEDKYGTTPPQLDADSSYFLYSKLRVDRNSWQEGDTYTCVVMHEALHNHYTQKSTSKSA
Response line: 2.8 fold
